Data origin: PubChem BioAssay (Tox21)

assay: qHTS assay to identify small molecule agonists of the vitamin D receptor (VDR) signaling pathway - cell viability counter screen (AID 743224); conditions: VDR-bla HEK293T viability, CellTiter-Glo luminescence, 16 h; series mostly up to 62.6 µM; note: nearly all actives have a fitted effect of over 50% in size
Results filed as inconclusive are left out. The source made the active and inactive calls. Calls come from the whole dose curve; as a rule, active = well fitted cell-killing curve with a large enough effect in the repeat runs; inconclusive = weak or mixed curves, or effect the other way; inactive = no such curve, though single readings can be large or run the other way.
Labels: t (active), f (inactive)

Oc1cccc(-c2c3nc(c(-c4cccc(O)c4)c4ccc([nH]4)c(-c4cccc(O)c4)c4nc(c(-c5cccc(O)c5)c5ccc2[nH]5)CC4)C=C3)c1 ... t
CCCCCCCCCOC(=O)c1ccc(O)cc1 ... t
CCOC(=O)O[C@H](C)OC(=O)c1ccc2c(c1)cc(C(=O)NC1CCN(C(C)C)CC1)n2Cc1cc(-c2ccc(Cl)s2)on1 ... t
CC(=O)N1CCN(c2ccc(OC[C@H]3CO[C@](Cn4ccnc4)(c4ccc(Cl)cc4Cl)O3)cc2)CC1 ... t
N=C1N=C(N)c2ccccc21 ... f
Cc1ccc(-n2nc(C(C)(C)C)cc2NC(=O)Nc2ccc(OCCN3CCOCC3)c3ccccc23)cc1 ... f
CC(C)(C)C(=O)OCOC(=O)[C@@H]1N2C(=O)[C@@H](NC(=O)[C@H](N)c3ccccc3)[C@H]2SC1(C)C ... f
Cc1onc(-c2ccccc2Cl)c1C(=O)N[C@@H]1C(=O)N2[C@@H]1SC(C)(C)[C@@H]2C(=O)O ... f
C[n+]1ccn(Cc2ccccc2)c1 ... f
Cc1[nH]cnc1C[C@H]1CCc2c(C)c3ccccc3n2C1=O ... f
C[C@]12CCC(=O)C=C1CC[C@@H]1[C@@H]2[C@@H](O)C[C@@]2(C)[C@H]1CC[C@]2(O)C(=O)COC(=O)CCC(=O)O ... f
CCCCCCCCCCCCc1ccc(O)cc1 ... t

* * *

assay: qHTS assay to identify small molecule agonists of the androgen receptor (AR) signaling pathway in the presence of an antagonist - cell viability counter screen (AID 1259379); conditions: MDA-kb2 viability, CellTiter-Fluor, 16 h; series mostly up to 92.4 µM; note: nearly all actives have a fitted effect of over 25% in size; note: potency is the fitted concentration of half-maximal effect
Records with an inconclusive call do not appear. Activity calls are given as the source filed them. Calls come from the whole dose curve; as a rule, active = well fitted cell-killing curve with a large enough effect in the repeat runs; inconclusive = weak or mixed curves, or effect the other way; inactive = flat fitted curve, though single readings scatter.
measured attribute: Potency

CCCCCCCCNC(C)C(O)c1ccc(SC(C)C)cc1 (stereo not drawn) ... 23.7 µM (active)
CCN(CCC#N)c1ccc(N=Nc2c(Cl)cc([N+](=O)[O-])cc2Cl)cc1 ... 17.2 µM (active)
CCCCC(CC)COP(=O)(O)OCC(CC)CCCC (stereo not drawn) ... inactive
Clc1ccc2nsnc2c1NC1=NCCN1 ... inactive
COc1cc(-c2nc(NC(=O)c3cc4cc(C)cc(C)c4n3CC(=O)O)sc2CCC2CCCCC2)c(OC)cc1Cl ... 56 µM (active)
O=C(O)c1ccc(Cl)c(Cl)c1 ... inactive
CC(C)(C)C(=O)OCOC(=O)[C@@H]1N2C(=O)[C@@H](NC(=O)[C@H](N)c3ccccc3)[C@H]2SC1(C)C ... inactive
Cc1cccc(N(C)C(=S)Oc2ccc3c(c2)C2CCC3C2)c1 (stereo not drawn) ... inactive
Cc1[nH]nc2c1N=C(c1ccccc1Cl)c1cc([N+](=O)[O-])ccc1N2 ... 30.6 µM (active)
CC(C)c1ccc2c(c1)CC[C@H]1[C@](C)(CN)CCC[C@]21C ... 43.3 µM (active)
CSc1cnc(C)cn1 ... inactive
N=C1C=CC(=C(c2ccc(N)cc2)c2ccc(N)cc2)C=C1 ... 12.2 µM (active)
Cn1cc(C(=O)[C@@H]2CCc3nc[nH]c3C2)c2ccccc21 ... inactive

* * *

test: qHTS assay to identify small molecule antagonists of the estrogen receptor alpha (ER-alpha) signaling pathway using the BG1 cell line - cell viability counter screen (AID 743081); settings: BG1Luc4E2 viability, CellTiter-Fluor, 22 h; series mostly up to 70.3 µM;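 note: compound given together with 17beta-estradiol as the ER stimulus; nearly all actives have a fitted effect of over 45% in size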
Results filed as inconclusive are left out. Calls of active or inactive are those of the source. The call rests on the fitted dose curve; in most records, active means well fitted cell-killing curve with a large enough effect in the repeat runs; inconclusive means weak or mixed curves, or effect the other way; inactive means flat fitted curve, though single readings scatter.
Outcomes: 1 = active, 0 = inactive

Clc1ccc2cc3ccccc3cc2c1 ... 0
CCCCCCCCCCCC[N+](C)(C)CCCCCCCCCCCC ... 1
CS(=O)(=O)CCNCc1ccc(-c2ccc3ncnc(Nc4ccc(OCc5cccc(F)c5)c(Cl)c4)c3c2)o1 ... 0
O=C(NO)C1(NS(=O)(=O)c2ccc(Oc3ccc(F)cc3)cc2)CCOCC1 ... 0
Cc1nc(-c2ccc3c(c2)CCN(CCC2CCC(NC(=O)/C=C/c4ccc(F)cc4)CC2)CC3)no1 (stereo not given) ... 0

* * *

assay: qHTS assay for small molecule agonists of the p53 signaling pathway - cell viability (AID 651633); settings: p53RE-bla HCT-116 viability, ATP luminescence, 16 h; series mostly up to 83.3 µM; note: nearly all actives have a fitted effect of over 30% in size
Inconclusive results are not listed. The source made the active and inactive calls. Calls come from the whole dose curve.
Possible outcomes: active, inactive

CCN(CC)CCNC(=O)c1c(C)[nH]c(/C=C2\C(=O)Nc3ccc(F)cc32)c1C ... active
C[n+]1cc2c3c(ccc2c2ccc4cc5c(cc4c21)OCO5)OCO3 ... active
CSc1cnc(C)cn1 ... inactive
CCCC(=O)OC[C@@H](OC(=O)CCC)[C@@H](OC(=O)CCC)[C@H](Cn1c2nc(=O)[nH]c(=O)c-2nc2cc(C)c(C)cc21)OC(=O)CCC ... inactive
O=[N+]([O-])c1ccccc1Nc1ccccc1 ... inactive
CC1=NC(C)OC1C (centres undefined) ... inactive
CCCCN1C(=O)[C@@H]([C@H](O)C2CCCCC2)NC(=O)C12CCN(Cc1ccc(Oc3ccc(C(=O)O)cc3)cc1)CC2 ... inactive
O=C(NO)C1(NS(=O)(=O)c2ccc(Oc3ccc(F)cc3)cc2)CCOCC1 ... inactive
CCCCCCCCCCCCCCCCCC[N+](C)(C)Cc1ccccc1 ... active
C[C@H]1[C@H]2CC[C@H]3[C@@H]4CC=C5C[C@@H](N(C)C)CC[C@]5(C)[C@H]4CC[C@]23CN1C ... inactive
CC(C)(C)CC(C)(C)c1ccc(O)c(Cc2ccc(Cl)cc2Cl)c1 ... active
CCCCN(CCCC)c1ccc(C(=O)c2ccccc2C(=O)O)c(O)c1 ... active
COc1cc(/C=C/C(=O)O[C@H]2CC[C@]34C[C@]35CC[C@]3(C)[C@@H]([C@H](C)CCC=C(C)C)CC[C@@]3(C)[C@@H]5CC[C@H]4C2(C)C)ccc1O ... inactive
COc1cccc(N)c1 ... inactive
Oc1ccc2c(c1)-c1ccccc1C2 ... inactive
[Cl][Bi]([Cl])([c]1ccccc1)([c]1ccccc1)[c]1ccccc1 ... active
N=C1N=C(N)c2cc3ccccc3cc21 ... active
Cc1cc(O)c(Cl)c(C)c1Cl ... active
CCCCCCCC[P+](CCCCCCCC)(CCCCCCCC)CCCCCCCC ... active

* * *

Assay: qHTS assay to identify small molecule antagonists of the estrogen related receptor signaling pathway with the pleiotropic PPARgamma coactivator (PGC) from Tox21 10K library (AID 1224841); note: actives are mostly falling curves and most rising ones were filed inactive; nearly all actives have a fitted effect of over 50% in size
Conditions: PGC/ERR reporter cell line, ONE-Glo luciferase, 18 h; series mostly up to 92.4 µM
Excerpt: U.S. Tox21 Program National Center for Advancing Translational Sciences [NCATS] NIH Chemical Genomics Center [NCGC] U.S. Environmental Protection Agency [EPA] National Institutes of Environmental Health Sciences [NIEHS] National Toxicology Program [NTP] U.S. Food and Drug Administration [FDA] Tox21 Assay Overview: Estrogen related receptors (ERRs), the first orphan nuclear receptors discovered, play an important role in the control of cellular energy metabolism. […]
Records with an inconclusive call do not appear. The source made the active and inactive calls. How the calls were made is not given here.
Classes used: true = active, false = inactive

Cc1c(C)c2c(c(C)c1OC(=O)CCC(=O)O)CC[C@@](C)(CCC[C@H](C)CCC[C@H](C)CCCC(C)C)O2 ... false
C[n+]1ccn(Cc2ccccc2)c1 ... false
CC1=C(C(=O)OC(C)C)C(c2cccc([N+](=O)[O-])c2)C(C(=O)OC2CN(C(c3ccccc3)c3ccccc3)C2)=C(N)N1 (stereo unspecified) ... true
O=C(O)c1ccc(Cl)c(Cl)c1 ... false
CCCCN1C(=O)[C@@H]([C@H](O)C2CCCCC2)NC(=O)C12CCN(Cc1ccc(Oc3ccc(C(=O)O)cc3)cc1)CC2 ... false
N=C1C=CC(=C(c2ccc(N)cc2)c2ccc(N)cc2)C=C1 ... true

* * *

Experiment: qHTS assay to identify small molecule antagonists of the thyroid receptor (TR) signaling pathway (AID 743065); note: nearly all actives have a fitted effect of over 55% in size; note: potency is the fitted concentration of half-maximal effect
Conditions: GH3.TRE-Luc, T3-stimulated luciferase inhibition, 23.5 h; series mostly up to 70.3 µM
From the text: U.S. Tox21 Program National Center for Advancing Translational Sciences [NCATS] NIH Chemical Genomics Center [NCGC] U.S. Environmental Protection Agency [EPA] National Institutes of Environmental Health Sciences [NIEHS] National Toxicology Program [NTP] U.S. Food and Drug Administration [FDA] Tox21 Assay Overview: Thyroid receptor (TR), a nuclear hormone receptor, plays an important role in development, proliferation, differentiation, metabolism, brain function, and cardiovascular system. […]
Results filed as inconclusive are left out. The source made the active and inactive calls. The call rests on the fitted dose curve; in most records, active means well fitted inhibition curve with a large enough effect in the repeat runs; inconclusive means weak or mixed curves; inactive means no such curve, though single readings can be large or run the other way.
measured attribute: Potency

CCCC/C=C/CCCCO ... inactive
COc1cccc2c1C(=O)c1c(O)c3c(c(O)c1C2=O)C[C@@](O)(C(=O)CO)C[C@@H]3O[C@H]1C[C@H](N)[C@H](O[C@@H]2CCCCO2)[C@H](C)O1 ... 0.841 µM (active)
CCCCN1CCCC[C@H]1C(=O)Nc1c(C)cccc1C ... inactive
Nc1ccc(N)c2ccccc12 ... 48.5 µM (active)
CC/C(=C(\c1ccc(O)cc1)c1ccc(OCCN(C)C)cc1)c1ccccc1 ... 12.2 µM (active)
CCCCCCCCCCCCCCCC(=O)OC[C@H](O)[C@H]1OC(=O)C(O)=C1O ... inactive
O=C1C=CC(=O)N1c1ccc(Cc2ccc(N3C(=O)C=CC3=O)cc2)cc1 ... 8.63 µM (active)
On1ccccc1=S ... 0.855 µM (active)
CC(C)(C)c1ccc(C(=O)CCCN2CCC(OC(c3ccccc3)c3ccccc3)CC2)cc1 ... 13.3 µM (active)
CCCC(=O)OC[C@@H](OC(=O)CCC)[C@@H](OC(=O)CCC)[C@H](Cn1c2nc(=O)[nH]c(=O)c-2nc2cc(C)c(C)cc21)OC(=O)CCC ... 21.1 µM (active)
CC(C)(C)c1ccc(C(=O)O)cc1 ... inactive
